Hello, the source for this data is patent US20070020327A1, in case you need it.

biological target: HLA-A*0201 (human); assay: competition with 125I-labelled standard peptide for purified HLA, gel filtration
Recorded Metric: IC50 (nM)
Give bare numbers, in nM.

1. VLAGGFFLV (modifications not checked) [peptide 1389.20 (PSM.27.V9)] | 26
2. LMYSLVHNL (modifications not checked) [peptide 1126.14 (PSM.469)] | 64

Now for another entry.
For reference, reported IC50 for FLTLSVTWIGV (modifications not checked) [peptide 1419.27 (PSA.3.V11)] stands at 6.8
